Test summary: chemical genetic growth profiling, strain panel (AID 1159580);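 also: tested at 20 µM; growth read once vehicle control cultures reached saturation at 30 °C; 1 = growth at the plate median or of vehicle wells; lower values mean less growth of the strain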
Condition summary: S. cerevisiae deletion strains, growth OD, locus YEL003W, strain gim4, active compounds read low
Screen size: about 5,500 compounds; about 2,000 (36%) were called active. Not shown: some 18% with an inconclusive outcome. This is one part of the list.
Property measured: normalized growth
Just the number, please, no unit after it.

Supply normalized growth value. Item: CC(C)CCCC(C)C1CCC2C3CC(=O)[C@H]4C[C@@H](O)CC[C@]4(C)C3CC[C@]12C (stereo partly specified)
1.01

Supply normalized growth value. Item: C/C1=C/CC(C)(C)/C=C/C/C(C)=C/CC1
0.983

Supply normalized growth value. Item: CC(C)CCCC(C)C1CCC2C3C[C@@H](O)[C@@]4(O)C[C@@H](O)CC[C@]4(C)C3CC[C@]12C (stereo partly specified)
0.974

Supply normalized growth value. Item: NCC(N)C(=O)c1ccccc1 (stereo unspecified)
1.04

Supply normalized growth value. Item: Oc1cccc(O)c1
0.985

Supply normalized growth value. Item: CC1=CC(=O)c2ccccc2C1=O
0.938

Supply normalized growth value. Item: CC(C)=CC1C(C(=O)O)C1(C)C (stereo unspecified)
0.971

Supply normalized growth value. Item: O=C(CC(=O)c1ccccc1)c1ccccc1
0.379

Supply normalized growth value. Item: CC[N+](C)(C)c1cccc(O)c1
0.995

Supply normalized growth value. Item: COC1CC2CCC(C)C(O)(O2)C(=O)C(=O)N2CCCCC2C(=O)OC(C(C)CC2CCC(O)C(OC)C2)CC(=O)C(C)/C=C(\C)C(O)C(OC)C(=O)C(C)CC(C)/C=C/C=C/C=C/1C (stereo unspecified)
0.0561

New cases:
Supply normalized growth value. Item: NCC(=O)c1ccccc1
1

====

Test summary: chemical genetic growth profiling, strain panel (AID 1159580);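 also: tested at 20 µM; growth read once vehicle control cultures reached saturation at 30 °C; 1 = growth at the plate median or of vehicle wells; lower values mean less growth of the strain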
Condition summary: S. cerevisiae deletion strains, growth OD, locus YLR262C, strain YPT6
Out of some 5,500 compounds screened, about 2,000 (36%) were called active. Another 18% or so got no clear call; they are omitted. No stated cut-off is given here; in the data, active means normalized growth mostly below about 0.91 (no sharp cut-off); inconclusive means no clear call, values can overlap the other calls; inactive means mostly above about 0.92. This is one part of the list.
Mark one answer only. Choices: TRUE for active, FALSE for inactive

What is the recorded call for this molecule in the test? OC[C@H]1O[C@@H](O[C@H]2[C@H](O)[C@@H](O)[C@@H](O)O[C@@H]2CO)[C@H](O)[C@@H](O)[C@@H]1O
FALSE

What is the recorded call for this molecule in the test? O=C1NC(O)=NC1(c1ccccc1)c1ccccc1
FALSE

What is the recorded call for this molecule in the test? CC1=CC(=O)c2ccccc2C1=O
TRUE

New cases:
What is the recorded call for this molecule in the test? FC(F)(F)c1cc(-c2noc(C3CCc4ccccc4O3)n2)cc(C(F)(F)F)c1 (configuration not stated)
FALSE

What is the recorded call for this molecule in the test? O=C(O)c1cc(O)c2c(c1)[C@@H]([C@H]1c3cc(C(=O)O)cc(O)c3C(=O)c3c(O[C@H]4O[C@H](CO)[C@@H](O)[C@H](O)[C@H]4O)cccc31)c1cccc(O[C@H]3O[C@H](CO)[C@@H](O)[C@H](O)[C@H]3O)c1C2=O
FALSE

What is the recorded call for this molecule in the test? CCCOc1ccc2nc(NC(=O)OC)[nH]c2c1
FALSE

====

// reported normalized growth for each item listed
Test summary: chemical genetic growth profiling, strain panel (AID 1159580);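 also: tested at 20 µM; growth read once vehicle control cultures reached saturation at 30 °C; 1 = growth at the plate median or of vehicle wells; lower values mean less growth of the strain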
Condition summary: S. cerevisiae deletion strains, growth OD, locus YOR106W, strain vam3, active compounds read low
About 2,000 (36%) of roughly 5,500 compounds were called active. Roughly 18% stayed inconclusive and do not appear here. The list shows a part of the results.
Just the number, please, no unit after it.

Worked examples follow.
Supply normalized growth value. Item: CC[N+](C)(C)c1cccc(O)c1
1.05

Supply normalized growth value. Item: NC1=NCCN1CC(=O)O
1.03

Supply normalized growth value. Item: OC[C@H]1O[C@@H](O[C@H]2[C@H](O)[C@@H](O)[C@@H](O)O[C@@H]2CO)[C@H](O)[C@@H](O)[C@@H]1O
1.04

New cases:
Supply normalized growth value. Item: CC(C)=CC1C(C(=O)O)C1(C)C (centres undefined)
1.01

Supply normalized growth value. Item: CC(=O)O[C@H]1CCC2(C)C3=C(CCC2C1(C)C)[C@@]1(C)CC[C@@H](C(C)CCC=C(C)C)[C@]1(C)CC3 (some centres undefined)
1

Supply normalized growth value. Item: Oc1cccc(O)c1
0.983

Supply normalized growth value. Item: CC(C)NCC(O)COc1ccc(COCCOC(C)C)cc1 (centres undefined)
1.01

Supply normalized growth value. Item: CN(C)[C@@H]1C(=O)C(C(N)=O)=C(O)[C@@]2(O)C(=O)C3=C(O)c4c(O)ccc(Cl)c4[C@@](C)(O)[C@H]3C[C@@H]12
0.929

Supply normalized growth value. Item: OC[C@H]1O[C@@](CO)(O[C@@H]2O[C@H](CO)[C@@H](O)[C@H](O)[C@H]2O)[C@@H](O[C@@H]2O[C@H](CO)[C@@H](O)[C@H](O)[C@H]2O)[C@@H]1O
1

The reported measurements were obtained from PubChem BioAssay AID1159580.
